# PROCEDURE SUMMARY: PET hydrolysis, aromatic products released after 48 h (umol product/mg enzyme); higher = more PET depolymerization activity
# RECORDED CONDITIONS: substrate: cryPow; 60 °C; pH 5.5
In this section, each of the sequences is paired with its reported PET hydrolysis.
READOUT: PET hydrolysis

{"ENTRY SEQUENCE": "ATTSYQRGPNPTEQSVRAANGPFAYSQFAIPDAEATGFGEGTIYYPNNTSVGTFGGVVIAPGFNADQNSTVWLGKRLASHGFVAVTITTHELNDQPYERGKQILAALDYLTGQSPAFVRSRLDPARLAAVGHSMGGGGTLFAAAQRPSLKAIVPLAPWALAKNWSNVQVPTMILSGAQDASAPPAEHAEKFYASLTSAPEKAYAKLDVNHVRFAWEHPLIGKLVVSWLKRFVDEDTRYTQFLCPTATGAVLLEYRATCPLG [DP026]", "RESULT": "< 3"}
{"ENTRY SEQUENCE": "ASPYQRGPNPTAASIAATTGPFAIASITVPRGNGFGGGVIYYPTSTSQGTFGGIAISPGLNGTWSGISWLGPRLASQGFVVFGIETNNLNDSPTSRGTQLLAALDYLTQRSSVRSRLDANRLAVMGHSMGGGGALDAALRRPTLKATIGNAPHLPSGSLANDRVPTLIYAMQNDTLVTPARLTSLYNTIPAATERAYIEVTGAGHNYIGQPSTTLARTMIPWLKIFIDSDTRYAPFLCPLNDRSGIRQYRNSCPLI [ESM128]", "RESULT": 4.5}
{"ENTRY SEQUENCE": "GSLAHIVMVDAYKPTKGSGASQTNPYARGPNPTAASLEASAGPFTVRSFTVSRPSGYGAGTVYYPTNAGGTVGAIAIVPGYTARQSSIKWWGPRLASHGFVVITIDTNSTFDYPSSRSSQQMAALRQVASLNGDSSSPIYGKVDTARMGVMGHSMGGGASLRSAANNPSLKAAIPQAPWDSQTNFSSVTVPTLIFACENDSIAPVNSHALPIYDSMSRNAKQFLEINGGSHSCANSGNSNQALIGKKGVAWMKRFMDNDTRYSTFACENPNSTAVSDFRTANCSLEGSGGSGAHIVMVDAYKPTK [TEP004]", "RESULT": 14}
{"ENTRY SEQUENCE": "AEAADNPYQRGPDPTLASVAATRGPFATAQATVPAGNGFNGGYVYYPTDTSLGTWGAVAIVPGYSALFADEEAWMGPWLASFGFVVLGIETNSRTDGADARATQLLAALDYLTQSSPVRHRVDANRLGVMGHSAGGAGTLMAALRRPSLKSAVGLAPGAPGNSLNMSTTQVPTMLISGQNDGTVTPSYVQGIYNTLPATVEHAWAELAGNDHLSFTRPNPTEMRILIPWLKIFLDNDTRYTQFLCPLADSTGVSRYSATCPLVPPGGPTAPPTVTPPPPTPTTPSPTTPPTSAACTATYRTVNSWSGGFQGEVTVTAGRAAINGWTVRWDLGNGQSISQVWNGTLSTSGSTATVRNVSYNGSLAPAASTGFGFLGTGAPAIPRLTCTSP [ESM037]", "RESULT": "< 3"}
{"ENTRY SEQUENCE": "QSAEASPPHGPDPTEESITAPRGPFEIDQKTVSRASVRGFGGGTIYYPTDTSEGTFSAVAIAPGYTAGQESLAWLGPRLASQGFVVFTIDTLTRYDQPDSRSRQLLAALDHLTDDSDVADRVDPARRGVMGHSMGGGGSLQAALDDPDLKAAIPMTPWHTTKDFSGVRTPTLIIGAQNDTVAPVSQHAKPFYESLPDDPGKAYLELAGASHFAPNVDNTTIARYSIAWLKRFLDDDTRYEQFLCPPPPDPAISDHQSTCPY [TEP105]", "RESULT": 10.5}
